target: human SK3 channel (hKCa2.3) (Homo sapiens, UniProt Q9UGI6); assay: Automated patch clamping (QPatch 16 HT whole-cell recordings); conditions: HEK-293 cells stably expressing hKCa2.3; currents measured at −80 mV; normalized to N-methyl bicuculline; read-out: IC50 in the Automated patch clamping assay (SK3 channel inhibition)
pIC50: −log10 of the molar value.
quantity_name: pIC50

Entry under test: CC(CO)(Nc1nc2c(CNc3ccncn3)cccc2[nH]1)c1ccc(F)c(Cl)c1 (stereo not shown) . Its pIC50 was > 4.52

Entry under test: Cc1noc(NCc2cccc3[nH]c(NC(C)(CO)c4ccc(F)c(Cl)c4)nc23)n1 (stereo not shown) . Its pIC50 was > 4.52

Entry under test: CC(CO)(Nc1nc2c(Cn3cc[nH]c3=O)cccc2[nH]1)c1ccc(F)c(Cl)c1 (stereo not shown) . Its pIC50 was > 4.52

Entry under test: Cc1oc(=N)n(Cc2cccc3[nH]c(NC(C)(CO)c4ccc(F)c(Cl)c4)nc23)c1C (stereo not shown) . Its pIC50 was > 6.00

* * *

For each record, write down the corresponding IC50.
Target: human SK3 channel (hKCa2.3) (Homo sapiens)
Assay: Automated patch clamping (QPatch 16 HT whole-cell recordings)
Conditions: HEK-293 cells stably expressing hKCa2.3; currents measured at −80 mV; normalized to N-methyl bicuculline; read-out: IC50 in the Automated patch clamping assay (SK3 channel inhibition)
Procedure: Automated whole cell patch-clamp recordings were performed using a QPatch 16 HT system and single-hole Qplates (Sophion, Denmark) on HEK-293 cells stably expressing the human SK3 channel (hKCa2.3). Cells were cultured and prepared for experiments using normal cell culturing procedures. […] The Qpatch automatically generates giga sealing, whole-cell formation, compound application and recording of current. hKCa2.3 currents were recorded in symmetrical K^+ solutions. […]

Entry under test: CC(C)(Nc1nc2c(Cn3ccoc3=N)cccc2[nH]1)c1cccc(C(F)(F)F)c1 [Example 7] . Its IC50 was < 1 µM

Entry under test: CCC(CO)(Nc1nc2c(Cn3ccoc3=N)cccc2[nH]1)c1cccc(C(F)(F)F)c1 (stereo not drawn) [Example 25] . Its IC50 was < 30 µM

Entry under test: N=c1occn1Cc1cccc2[nH]c(NC3(c4cccc(Cl)c4)CC3)nc12 [Example 1] . Its IC50 was < 30 µM

Entry under test: Cc1coc(=N)n1Cc1cccc2[nH]c(NC(C)(CO)c3cccc(Cl)c3)nc12 (stereo not drawn) [Example 5] . Its IC50 was < 1 µM

Entry under test: Cc1cc(NCc2cccc3[nH]c(NC(C)(CO)c4ccc(F)c(Cl)c4)nc23)no1 (stereo not drawn) [Example 12] . Its IC50 was < 1 µM

Entry under test: CC(CO)(Nc1nc2c(CN3CCCC3=O)cccc2[nH]1)c1ccc(F)c(Cl)c1 (stereo not drawn) [Example 37] . Its IC50 was < 30 µM

Entry under test: CC(CO)(Nc1nc2c(Cn3ccoc3=N)cccc2[nH]1)c1ccc(Cl)c(Cl)c1 (single isomer, unassigned; (+)) [Example 19b] . Its IC50 was < 30 µM

Entry under test: CC(CO)(Nc1nc2c(CNc3ccon3)cccc2[nH]1)c1cc(F)cc(Cl)c1 (single isomer, unassigned; (-)) [Example 46a] . Its IC50 was < 30 µM

Entry under test: CC(CO)(Nc1nc2c(CNc3ccon3)cccc2[nH]1)c1ccc(Cl)c(F)c1 (single isomer, unassigned) [Example 44a] . Its IC50 was < 30 µM

Entry under test: Cc1cn(Cc2cccc3[nH]c(NC(C)(CO)c4cccc(C(F)(F)F)c4)nc23)c(=N)o1 (stereo not drawn) [Example 24] . Its IC50 was < 1 µM

Entry under test: CC(CO)(Nc1nc2c(Cn3ccoc3=N)cccc2[nH]1)c1cc(F)cc(Cl)c1 (single isomer, unassigned; (+)) [Example 45b] . Its IC50 was < 30 µM

Entry under test: Cc1cc(NCc2cccc3[nH]c(NC(C)(CO)c4ccc(F)c(Cl)c4)nc23)no1 (single isomer, unassigned; (-)) [Example 12a] . Its IC50 was < 1 µM

Entry under test: CC(CO)(Nc1nc2c(CN3CCNC3=O)cccc2[nH]1)c1ccc(F)c(Cl)c1 (stereo not drawn) [Example 34] . Its IC50 was < 30 µM

Entry under test: CC(C)(Nc1nc2c(Cn3ccoc3=N)cccc2[nH]1)c1cccc(Cl)c1 [Example 2] . Its IC50 was < 1 µM

Entry under test: CC(CO)(Nc1nc2c(Cn3ccoc3=N)cccc2[nH]1)c1cccc(C(F)(F)F)c1 (single isomer, unassigned; (+)) [Example 18b] . Its IC50 was < 30 µM
